Tested on: ragweed (common ragweed, Ambrosia elatior)
Method Description: Test B pre-/postemergence plant response
Assay type: in vivo
Test Conditions: Postemergence, 62 g ai/ha; scale 0 (no effect) to 100 (complete control); 13 to 15 days
Entries and their Plant response rating, Ragweed values follow.
// keep it numeric: no unit symbol after the value

Answered examples (3):
> print(dat)
                                   molecule  reported.measurement
1  O=C1CCCC(O)=C1C(=O)c1cnc(-c2ccccc2)n(-c2cccc(Br)c2)c1=O                    80
2  Cn1c(-c2ccccc2)ncc(C(=O)C2=C(O)CCCC2=O)c1=O                    80
3  CCCCc1ncc(C(=O)C2=C(O)CCCC2=O)c(=O)n1-c1cccc(C)c1                    75

Query: Query the reported Plant response rating, Ragweed for ragweed (common ragweed, Ambrosia elatior); item: `O=C1CCCC(O)=C1C(=O)c1cnc(-c2ccsc2)n(-c2ccccc2)c1=O`
Response: 55

Query: Query the reported Plant response rating, Ragweed for ragweed (common ragweed, Ambrosia elatior); item: `O=C1CCCC(O)=C1C(=O)c1cnc(-c2cccc(Cl)c2)n(-c2ccc(Cl)cc2)c1=O`
Response: 85

Query: Query the reported Plant response rating, Ragweed for ragweed (common ragweed, Ambrosia elatior); item: `Cc1ccc(F)cc1-n1c(-c2ccccc2)ncc(C(=O)C2=C(O)CCCC2=O)c1=O`
Response: 95

###

System: large crabgrass (Digitaria sanguinalis)
Method Description: Test A pre-/postemergence plant response
Assay type: in vivo
Test Conditions: Postemergence, 125 g ai/ha; 0 to 100 scale where 0 is no effect and 100 is complete control
Entries and their Plant response rating, Crabgrass, Large values follow.
// keep it numeric: no unit symbol after the value

Answered examples (10):
> print(dat)
                                    molecule  reported.measurement
 1  CCc1ccc(-n2c(-c3cccc(Cl)c3)ncc(C(=O)C3=C(O)CCCC3=O)c2=O)cc1                    70
 2  CCCCCc1ncc(C(=O)C2=C(O)CCCC2=O)c(=O)n1-c1ccccc1                    30
 3  Cc1ccccc1-c1ncc(C(=O)C2=C(O)CCCC2=O)c(=O)n1-c1ccccc1                    40
 4  Cc1cc(-n2c(-c3cccc(Cl)c3)ncc(C(=O)C3=C(O)CCCC3=O)c2=O)ccc1F                    40
 5  COCCn1c(-c2cc(F)cc(F)c2)ncc(C(=O)C2=C(O)CCCC2=O)c1=O                    80
 6  O=C1CCCC(O)=C1C(=O)c1cnc(-c2ccc(F)cc2)n(C2CCCCC2)c1=O                    70
 7  O=C(C1=C(O)C2CCC(C2)C1=O)c1cnc(-c2ccccc2)n(C2CCCCCC2)c1=O (centres unmarked)                    80
 8  O=C1CCCC(O)=C1C(=O)c1cnc(-c2cc(F)cc(F)c2)n(C2CCCCC2)c1=O                    90
 9  CCCc1ncc(C(=O)C2=C(O)CCCC2=O)c(=O)n1-c1ccccc1C                    90
10  CC(C)CC(=O)OC1=C(C(=O)c2cnc(-c3ccccc3)n(-c3ccccc3)c2=O)C(=O)CCC1                    80

Query: # get_value(readout='Plant response rating, Crabgrass, Large', item= `Cc1cccc(-c2ncc(C(=O)C3=C(O)CCCC3=O)c(=O)n2-c2ccccc2C)c1` )
Response: 10

Query: # get_value(readout='Plant response rating, Crabgrass, Large', item= O=C(C1=C(O)C2CCC(C2)C1=O)c1cnc(-c2cccc(Br)c2)n(C2CCCCC2)c1=O (centres unmarked) )
Response: 30

Query: # get_value(readout='Plant response rating, Crabgrass, Large', item= `CCCCCn1c(-c2ccccc2)ncc(C(=O)C2=C(O)CCCC2=O)c1=O` )
Response: 90

Query: # get_value(readout='Plant response rating, Crabgrass, Large', item= `COCCCn1c(-c2cc(F)cc(F)c2)ncc(C(=O)C2=C(O)CCCC2=O)c1=O` )
Response: 90

Query: # get_value(readout='Plant response rating, Crabgrass, Large', item= `CCCc1ncc(C(=O)C2=C(O)CCCC2=O)c(=O)n1Cc1ccc(OC)c(OC)c1` )
Response: 0

Query: # get_value(readout='Plant response rating, Crabgrass, Large', item= `CCCn1c(-c2cccc(Cl)c2)ncc(C(=O)C2=C(O)CCCC2=O)c1=O` )
Response: 90

Query: # get_value(readout='Plant response rating, Crabgrass, Large', item= CCCCn1c(-c2cccc(F)c2)ncc(C(=O)C2=C(O)C3CCC(C3)C2=O)c1=O (centres unmarked) )
Response: 80

###

System: goosegrass (Eleusine indica)
Method Description: Test B pre-/postemergence plant response
Type: in vivo
Test Conditions: Postemergence, 250 g ai/ha; scale 0 to 100 (0 no effect, 100 complete control)
Endpoint: Plant response rating, Goosegrass
// keep it numeric: no unit symbol after the value

> print(dat)
                                   molecule  reported.measurement
1  CCCCc1ncc(C(=O)C2=C(O)CCCC2=O)c(=O)n1-c1cccc(C)c1                    75

Query: # get_value(readout='Plant response rating, Goosegrass', item= `COCCCn1c(-c2cccc(C)c2)ncc(C(=O)C2=C(O)CCCC2=O)c1=O` )
Response: 90

Query: # get_value(readout='Plant response rating, Goosegrass', item= `Cc1ccccc1-c1ncc(C(=O)C2=C(O)CCCC2=O)c(=O)n1-c1ccccc1` )
Response: 85

Query: # get_value(readout='Plant response rating, Goosegrass', item= `COCCn1c(-c2cc(F)cc(F)c2)ncc(C(=O)C2=C(O)CCCC2=O)c1=O` )
Response: 95

Query: # get_value(readout='Plant response rating, Goosegrass', item= `CCCCc1ncc(C(=O)C2=C(O)CCCC2=O)c(=O)n1-c1ccc(C)cc1` )
Response: 80

Query: # get_value(readout='Plant response rating, Goosegrass', item= `CC(C)CC(=O)OC1=C(C(=O)c2cnc(-c3ccccc3)n(-c3ccccc3)c2=O)C(=O)CCC1` )
Response: 95

Query: # get_value(readout='Plant response rating, Goosegrass', item= `Cc1cc(-n2c(-c3ccccc3)ncc(C(=O)C3=C(O)CCCC3=O)c2=O)ccc1F` )
Response: 85

Query: # get_value(readout='Plant response rating, Goosegrass', item= `O=C1CCCC(O)=C1C(=O)c1cnc(-c2cccc(Cl)c2)n(-c2ccc(Cl)cc2)c1=O` )
Response: 90

###

Entries and their Plant response rating, Pigweed values follow.
Tested on: pigweed (Amaranthus retroflexus)
Method Description: Test A pre-/postemergence plant response
Assay type: in vivo
Test Conditions: Preemergence, 500 g ai/ha; visual injury, 0 to 100 scale (0 no effect, 100 complete control), approx. ten days
Excerpt: Seeds of barnyardgrass (Echinochloa crus-galli), large crabgrass (Digitaria sanguinalis), giant foxtail (Setaria faberii), morningglory (Ipomoea spp.), pigweed (Amaranthus retroflexus), velvetleaf (Abutilon theophrasti), wheat (Triticum aestivum) and corn (Zea mays) were planted into a blend of loam soil and sand and treated preemergence with a directed soil spray using test chemicals formulated in a non-phytotoxic solvent mixture which included a surfactant. […]

Answered examples (2):
> print(dat)
                                   molecule                     tested.target  reported.measurement
1  COCCn1c(-c2cccc(Cl)c2)ncc(C(=O)C2=C(O)CCCC2=O)c1=O  pigweed (Amaranthus retroflexus)                   100
2  O=C1CCCC(O)=C1C(=O)c1cnc(-c2ccc(Cl)s2)n(-c2ccccc2)c1=O  pigweed (Amaranthus retroflexus)                     0

# evaluate next
Query: Query the reported Plant response rating, Pigweed for pigweed (Amaranthus retroflexus); item: `CCCn1c(-c2cccc(Br)c2)ncc(C(=O)C2=C(O)CCCC2=O)c1=O`
Response: 100

###

System: large crabgrass (Digitaria sanguinalis)
Method Description: Test B pre-/postemergence plant response
Format: in vivo
Test Conditions: Postemergence, 31 g ai/ha; 0 to 100 scale (0 no effect, 100 complete control)
Entries and their Plant response rating, Crabgrass, Large values follow.

Answered examples (7):
> print(dat)
                                   molecule  reported.measurement
1  CCCCn1c(-c2cc(F)cc(F)c2)ncc(C(=O)C2=C(O)C3CCC(C3)C2=O)c1=O (centres unmarked)                    80
2  Cc1ccc(F)cc1-n1c(-c2cccc(Cl)c2)ncc(C(=O)C2=C(O)CCCC2=O)c1=O                    80
3  O=C1CCCC(O)=C1C(=O)c1cnc(-c2ccc(F)cc2)n(C2CCCCC2)c1=O                    75
4  COCCn1c(-c2cccc(F)c2)ncc(C(=O)C2=C(O)CCCC2=O)c1=O                    70
5  CCCn1c(-c2cccc(Cl)c2)ncc(C(=O)C2=C(O)CCCC2=O)c1=O                    60
6  Cc1cc(-n2c(-c3cccc(F)c3)ncc(C(=O)C3=C(O)CCCC3=O)c2=O)ccc1F                    85
7  CCc1ccccc1-n1c(-c2ccccc2)ncc(C(=O)C2=C(O)CCCC2=O)c1=O                    85

# evaluate next
Query: Query the reported Plant response rating, Crabgrass, Large for large crabgrass (Digitaria sanguinalis); item: `CCCn1c(-c2cc(F)cc(F)c2)ncc(C(=O)C2=C(O)CCCC2=O)c1=O`
Response: 75
